# Subject Of Test: hemagglutinin of A/Brisbane/10/2007 (H3N2), in the influenza virus antigen standard (Influenza A virus A/Brisbane/10/2007 …, UniProt A8W8K8, strain)
# Method Summary: ELISA
# Run Parameters: one partner purified
Reported Property: binding result

In: Given R1a-B6 (VHH, also called R1a-B6 monovalent; source: E. coli WK6 periplasm, purified (Talon IMAC, Superdex 75 SEC)) VHH: QVQLVESGGGLVQPGGSLRLSCAASGSFFSRYRMGWYRQAPGEQRELVASIAYDGSTSYADPVKGRFTISRDNANTVHLQMYSLKPDDTAVYYCNLDPPGILYWGQGTQVTVSS , state its recorded binding result.
Out: no binding

In: Now this one: R2a-G9 (VHH, source: E. coli WK6 periplasm, purified (Talon IMAC, Superdex 75 SEC)) VHH: QVQLVESGGGLVQPGGSLRLSCAASDNIFSFYTMGWYRQSPGKERELVAVIGNGGNTNYADSVKGRFTISRDNGKNKAHLQMNSLKPEDTAVYYCKASGPGGVEVWGQGTQVTVSS
Out: no binding

In: Now this one: R2a-G8 (VHH, source: E. coli WK6 periplasm, purified (Talon IMAC, Superdex 75 SEC)) VHH: QLQLAESGGGLVQAGGSLRLSCAASGSTLNNNAIGWFRQAPGKEREGVSCMNSRDGTTNYADSVKGRFTISRDVAKNTVYLQMNSLKPEDTAVYFCAVKGFAPFLIGCPWGKAEYDYWGQGTQVTVSS
Out: no binding

In: Now this one: R2b-E8 (VHH, source: E. coli WK6 periplasm, purified (Talon IMAC, Superdex 75 SEC)) VHH: QVQLVESGGGLVQPGGSLRLSCAASGSFFSRYRMGWYRQAPGEQRELVAGITYDDSTNYAGSVKGRFTISRDNAKNTVHLQMNSLKPEDTAVYYCNLNPPGNLYWGQGTQVTVSS
Out: no binding

Numbers sourced from paper PMC4118869.
